Where do these numbers come from? They come from ChEMBL document CHEMBL1124354.

target: Sterol O-acyltransferase 1 (Rattus norvegicus) (UniProt O70536); test: Serum hypolipidemic activity in rats; format: functional
Sequence (O70536 whole entry): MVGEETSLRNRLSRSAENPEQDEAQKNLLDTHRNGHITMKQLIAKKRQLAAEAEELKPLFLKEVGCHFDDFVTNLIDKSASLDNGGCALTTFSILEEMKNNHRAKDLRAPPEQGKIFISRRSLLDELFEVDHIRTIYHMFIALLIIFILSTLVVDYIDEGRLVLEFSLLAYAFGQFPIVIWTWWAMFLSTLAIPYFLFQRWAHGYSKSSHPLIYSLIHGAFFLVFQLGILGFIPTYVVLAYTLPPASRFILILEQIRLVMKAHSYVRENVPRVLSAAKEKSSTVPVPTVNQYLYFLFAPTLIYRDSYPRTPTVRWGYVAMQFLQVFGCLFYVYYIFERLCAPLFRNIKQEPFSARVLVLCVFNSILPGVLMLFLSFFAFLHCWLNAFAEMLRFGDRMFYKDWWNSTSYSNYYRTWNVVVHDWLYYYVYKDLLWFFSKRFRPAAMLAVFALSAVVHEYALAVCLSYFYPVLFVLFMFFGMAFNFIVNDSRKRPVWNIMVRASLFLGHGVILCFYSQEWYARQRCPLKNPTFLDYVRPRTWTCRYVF
READOUT: SS (%)

• Cc1ccc(NC(=O)N(Cc2ccccc2)Cc2ccccc2)cc1C = 97
• CCCCN(CCCC)C(=O)Nc1ccc(C)c(Cl)c1 = 110
• Cc1cc(Cl)ccc1NC(=O)N(Cc1ccccc1)Cc1ccccc1 = 53
• C#CCN(CC#C)C(=O)Nc1ccc(C)cc1C = 73
• CCCCCN(CCCCC)C(=O)Nc1ccc(C)cc1C = 82
• O=C(NCc1ccccc1)Nc1ccccc1Cl = 92
• O=C(Nc1cccc(Br)c1)N(Cc1ccccc1)Cc1ccccc1 = 92
• Cc1cc(C)c(NC(=O)N(Cc2ccccc2)Cc2ccccc2)c(C)c1 = 32
• CCCCN(Cc1ccccc1)C(=O)Nc1ccc(C(=O)O)cc1C = 76
• CCCCN(CCCC)C(=O)Nc1cc(Cl)c(Cl)cc1Cl = 111
• CCCCN(Cc1ccccc1)C(=O)Nc1cc(Cl)cc(Cl)c1 = 120
• CCCCCCCN(CCCCCCC)C(=O)Nc1ccc(C)cc1C = 65
